- SYSTEM UNDER TEST: T1, high affinity SIRP-α D1 variant CV1-3
- T1 chain: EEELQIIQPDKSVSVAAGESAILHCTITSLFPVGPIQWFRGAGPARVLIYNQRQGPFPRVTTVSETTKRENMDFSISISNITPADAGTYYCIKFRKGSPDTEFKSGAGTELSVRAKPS
- PROTOCOL NOTES: SPR, Langmuir fit
REPORTED ENDPOINT: koff (s⁻¹)
One number for each entry, in s⁻¹.

Recorded koff, per entry:
Reported koff ( S74 (scFv, V domains shown, also called clone 74) VH: DVQLVESGGGVVRPGESLRLSCAASGFTFSSNAMSWVRQAPGKGLEWLAGISAGDSDTYYPASVKGRFTISRDNPKNTLYLQMNTLTAEDTAVYYCARETWNHLFDYWGLGTLVTVSS VL: ALTQPASVSANPGETVKIACSGGSYYSYYYGWYQQKSPGSALVTVIYSDDKRPSGIPSRFSGSASGSTATLTITGVRAEDEAVYYCGGYDYSSYTNDFGAGTTLTVL ) = 0.000166

Reported koff ( S29 (scFv, V domains shown, also called clone 29) VH: DVQLVESGGGVVRPGESLRLSCAVSGFRFSSYAMSWVRQAPGKGLEWVSGISSDSDAYYVDSVKGRFTISRDNSKNTLYLQVNSLTAEDTAVYYCARETWNHLFDYWGLGTMVTVSS VL: ALTQPASVSANLGETVKITCSGGDSSSHYYGWFQQKSPGSAPVTLIYSDDERPSDIPSRFSGSASGSTATLTITGVRVEDEAIYFCGAYDGSTYTNTFGAGTTLTVL ) = 0.000343

More entries:
Reported koff ( S26 (scFv, V domains shown, also called clone 26) VH: DVQLVESGGGVVRPGESLRLSCAASGFTFSTYAMSWVRQAPGKGLEWVSGISASGSGTYYGDSVKGRFTMSRDNSKNTLYLQMNSLTAEDTAVYYCARETWNHLFDYWGLGTLVTVSS VL: ALTQPASVSANLGGTVEITCSGGSSSYYGWYQQKSPGSAPVTVIYSDNQRPSDIPSRFSGSASDSTATLTITGVQVEDEAIYYCGGYDSSTYANTFGAGTTLTVL ) = 4.74e-05
